# TEST TARGET: T1, C-terminal fragment of CD92 (FNfn10 cleaved in the CD loop) (human, UniProt P02751 1578-1631)
# T1 construct: Start at residue 43 is inferred from the N-terminal fragment ending at Asn42
# T1 sequence (P02751 other isoform, or with tags, fused parts or gaps): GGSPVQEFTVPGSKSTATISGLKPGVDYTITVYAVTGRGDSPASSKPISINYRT
# ASSAY NAME: Trp fluorescence titrations, extrapolated to plain buffer in the reverse order
Square brackets hold non-standard residues; d marks the D form. Ends that are not written are not given here. * marks the point of attachment. hSer(lactone) = O=C1OCC[C@@H]1N*
OBSERVATION TYPE: pKd
// pKd: -log10(molar conc.)

Input line: Any idea what pKd was measured for VSDVPRKLQVVAATPTSLLISWDAPAVTVRYYRITYGETGGNGG[hSer(lactone)] (other, not fully specified, also called mutant CD-loop fragment) ?
Output line: 8.41
